Biological target: EGFR (Homo sapiens, UniProt P00533)
Sequence (P00533 25-1210): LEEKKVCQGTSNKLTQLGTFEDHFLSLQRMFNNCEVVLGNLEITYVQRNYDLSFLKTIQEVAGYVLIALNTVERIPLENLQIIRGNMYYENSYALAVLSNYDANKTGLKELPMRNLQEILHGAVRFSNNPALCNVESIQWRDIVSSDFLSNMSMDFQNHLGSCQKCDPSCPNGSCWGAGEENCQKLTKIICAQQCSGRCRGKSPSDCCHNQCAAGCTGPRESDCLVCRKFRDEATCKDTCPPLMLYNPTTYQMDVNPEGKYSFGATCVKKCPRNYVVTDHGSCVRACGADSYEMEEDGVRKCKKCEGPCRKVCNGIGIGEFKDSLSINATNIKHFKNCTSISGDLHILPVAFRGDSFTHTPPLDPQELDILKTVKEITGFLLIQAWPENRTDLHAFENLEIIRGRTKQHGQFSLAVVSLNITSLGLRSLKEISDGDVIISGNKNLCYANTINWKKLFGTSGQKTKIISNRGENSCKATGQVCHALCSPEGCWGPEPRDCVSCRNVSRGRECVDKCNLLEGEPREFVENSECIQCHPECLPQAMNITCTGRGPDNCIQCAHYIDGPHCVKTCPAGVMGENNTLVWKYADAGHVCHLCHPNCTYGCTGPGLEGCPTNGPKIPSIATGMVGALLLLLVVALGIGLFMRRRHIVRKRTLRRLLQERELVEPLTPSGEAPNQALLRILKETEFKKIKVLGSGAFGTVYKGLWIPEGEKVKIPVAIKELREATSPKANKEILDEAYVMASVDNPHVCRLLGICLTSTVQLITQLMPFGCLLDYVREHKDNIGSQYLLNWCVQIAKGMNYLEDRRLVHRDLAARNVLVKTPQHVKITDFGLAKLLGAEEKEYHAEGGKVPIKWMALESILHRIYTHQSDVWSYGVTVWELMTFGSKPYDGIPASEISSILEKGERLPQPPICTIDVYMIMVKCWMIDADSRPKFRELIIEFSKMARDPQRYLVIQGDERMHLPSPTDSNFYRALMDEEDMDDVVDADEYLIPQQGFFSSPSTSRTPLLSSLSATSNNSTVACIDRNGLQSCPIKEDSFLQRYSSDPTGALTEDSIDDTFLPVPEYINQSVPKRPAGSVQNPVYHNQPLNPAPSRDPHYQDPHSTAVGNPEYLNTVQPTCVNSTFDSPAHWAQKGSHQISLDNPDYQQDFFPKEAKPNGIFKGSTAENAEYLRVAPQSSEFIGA
pKd: −log10 of the molar value.
attribute-measured: pKd

**Q:** What value of pKd on EGFR (Homo sapiens, UniProt P00533) does `COc1cccc(-c2cc3c(NCc4ccc(Cl)cc4)ncnc3[nH]2)c1` have?
**A:** > 7.00

**Q:** Follow-up entry: `C[C@@H](Nc1ncnc2oc(-c3ccccc3)c(-c3ccccc3)c12)c1ccccc1`
**A:** > 7.00

**Q:** Follow-up entry: `COc1cccc(CNc2ncnc3[nH]c(-c4ccc(O)cc4)cc23)c1`
**A:** 6.00 to 7.00

**Q:** Follow-up entry: `Cn1c(-c2ccc(O)cc2)cc2c(Nc3cccc(Br)c3)ncnc21`
**A:** 5.00 to 6.00

**Q:** Follow-up entry: `C[C@H](Nc1ncnc2c1[nH]c1ccccc12)c1ccccc1`
**A:** > 7.00

**Q:** Follow-up entry: `Oc1ccc(-c2cc3c(Nc4cccc(F)c4)ncnc3[nH]2)cc1`
**A:** > 7.00

**Q:** Follow-up entry: `Clc1ccc(Nc2ncnc3[nH]cnc23)cc1Cl`
**A:** 5.00 to 6.00

**Q:** Follow-up entry: `COc1ccc(-c2nc3c(NCc4cccc(C)c4)ncnc3[nH]2)cc1`
**A:** 6.00 to 7.00

**Q:** Follow-up entry: `COc1cccc(Nc2ncnc3[nH]c(-c4ccc(O)cc4)cc23)c1`
**A:** > 7.00

###

Molecular target: UniProtKB P00533
So I've got a bunch of compounds here, and I need their Kd values.

**Q:** State the recorded Kd for this entry: `COc1ccc(Cn2c(-c3ccc(OC)cc3)cc3c(Nc4cc(C)cc(C)c4)ncnc32)cc1`
**A:** 1000 to 10000 nM

**Q:** Follow-up entry: CC(Nc1ncnc2oc(-c3ccccc3)c(-c3ccccc3)c12)c1ccccc1 (stereo not drawn)
**A:** < 100 nM

**Q:** Follow-up entry: `COc1cccc(Nc2ncnc3[nH]c(-c4cccc(OC)c4)cc23)c1`
**A:** < 100 nM
